- target: human GLP-1 receptor (human, UniProt P43220 24-463)
- test method notes: cell-based or functional assay
Listed here: items and their measured max Ca2+ signal, COS-7, FLIPR; agonist GLP-1.
observed property: max Ca2+ signal, COS-7, FLIPR; agonist GLP-1

INSERT INTO results (binder, observed_measurement) VALUES
  ('Human Gαq/s9 (other) MTLESIMACCLSEEAKEARRINDEIERQLRRDKRDARRELKLLLLGTGESGKSTFIKQMRIIHGSGYSDEDKRGFTKLVYQNIFTAMQAMIRAMDTLKIPYKYEHNKAHAQLVREVDVEKVSAFENPYVDAIKSLWNDPGIQECYDRRREYQLSDSTKYYLNDLDRVADPSYLPTQQDVLRVRVPTTGIIEYPFDLQSVIFRMVDVGGQRSERRKWIHCFENVTSIMFLVALSEYDQVLVESDNENRMEESKALFRTIITYPWFQNSSVILFLNKKDLLEEKIMYSHLVDYFPEYDGPQRDAQAAREFILKMFVDLNPDSDKIIYSHFTCATDTENIRFVFAAVKDTILQMHLRQYELL', '4200 fluorescence units'),
  ('Human Gαq/s5 (other) MTLESIMACCLSEEAKEARRINDEIERQLRRDKRDARRELKLLLLGTGESGKSTFIKQMRIIHGSGYSDEDKRGFTKLVYQNIFTAMQAMIRAMDTLKIPYKYEHNKAHAQLVREVDVEKVSAFENPYVDAIKSLWNDPGIQECYDRRREYQLSDSTKYYLNDLDRVADPSYLPTQQDVLRVRVPTTGIIEYPFDLQSVIFRMVDVGGQRSERRKWIHCFENVTSIMFLVALSEYDQVLVESDNENRMEESKALFRTIITYPWFQNSSVILFLNKKDLLEEKIMYSHLVDYFPEYDGPQRDAQAAREFILKMFVDLNPDSDKIIYSHFTCATDTENIRFVFAAVKDTILQLNLKQYELL', '189 fluorescence units'),
  ('C. elegans Gαq/s9 (other) MACCLSEEAREQKRINQEIEKQLQRDKRNARRELKLLLLGTGESGKSTFIKQMRIIHGQGYSEEDKRAHIRLVYQNVFMAIQSMIRAMDTLDIKFGNESEELQEKAAVVREVDFESVTSFEEPYVSYIKELWEDSGIQECYDRRREYQLTDSAKYYLSDLRRLAVPDYLPTEQDILRVRVPTTGIIEYPFDLEQIIFRMVDVGGQRSERRKWIHCFENVTSIMFLVALSEYDQVLVECDNENRMEESKALFRTIITYPWFTNSSVILFLNKKDLLEEKILYSHLADYFPEYDGPPRDPIAAREFILKMFVDLNPDADKIIYSHFTCATDTENIRFVFAAVKDTILQMHLRQYELL', '2460 fluorescence units');
